Entry source: patent US20240083857A1

# IC50 annotations
System name: human SOS1 (nucleotide exchange of K-Ras^G12C) (Homo sapiens, UniProt Q07889)
Protocol: Biochemical assay 2: K-Ras^G12C activation assay by hSOS1 at high GTP concentration (HTRF)
Particulars: high GTP; read-out: Assay 2 (KRAS-Activation by SOS high GTP) activity expressed as IC50

>  <Compound>
COc1cc2nc(C)nc(NC(C)c3ccc(-c4ccccc4CN4CC[C@H]4CO)s3)c2cc1OC (stereo partly shown) [Example 318]

>  <IC50 [µM]>
0.167

$$$$
>  <Compound>
COc1cc2nc(C)nc(N[C@H](C)c3cccc(-c4cccc(OC(F)(F)F)c4)c3)c2cc1OC [Example 84]

>  <IC50 [µM]>
7.2

$$$$
>  <Compound>
COc1cc2nc(C)nc(NC(C)c3ccc(-c4ccccc4[C@H](C)N)s3)c2cc1OC (stereo in doubt) [Example 360]

>  <IC50 [µM]>
0.141

$$$$
>  <Compound>
COc1cc2nc(C)nc(N[C@H](C)c3cccc(-c4cnc5[nH]ccc5c4)c3)c2cc1OC [Example 60]

>  <IC50 [µM]>
0.448

$$$$
>  <Compound>
CCOc1cc2c(N[C@H](C)c3cccc(-c4cnn(CC)c4)c3)nc(C)nc2cc1OC [Example 356]

>  <IC50 [µM]>
0.777

$$$$
>  <Compound>
COc1cc2nc(C)nc(NC(C)c3cc4ccccc4o3)c2cc1OC (stereo not shown) [Example 20]

>  <IC50 [µM]>
8.2

$$$$
>  <Compound>
COc1cc2nc(C)nc(N[C@H](C)c3cccc(-c4ccc(O)nc4)c3)c2cc1OC [Example 68]

>  <IC50 [µM]>
0.486

$$$$
>  <Compound>
CNCc1ccccc1-c1ccc(C(C)Nc2nc(C)nc3cc(OC)c(OC)cc23)s1 (stereo not shown) [Example 250]

>  <IC50 [µM]>
0.0581

$$$$
>  <Compound>
COc1cc2nc(C)nc(NC(C)c3ccc(-c4ccc(F)cc4CNC(=O)CNc4ccccc4)s3)c2cc1OC (stereo not shown) [Example 299]

>  <IC50 [µM]>
1.23

$$$$
>  <Compound>
COc1cc2nc(C)nc(NC(C)c3ccc(-c4ccccc4CNc4ccccn4)s3)c2cc1OC (stereo not shown) [Example 301]

>  <IC50 [µM]>
0.931

$$$$

----------
System name: human SOS1 (loading of human K-Ras^G12C-GDP with fluorescent GTP-analog) (Homo sapiens, UniProt Q07889)
Protocol: Biochemical assay 3: K-Ras^G12C activation assay by hSOS1 (HTRF)
Particulars: read-out: Assay 3 (KRAS-Activation by SOS no GTP) activity expressed as % inhibition at 20 μM; no GTP; at 20 μM

>  <Molecule>
COc1cc2nc(C)nc(N[C@@H](C)c3ccc(-c4ccccc4)s3)c2cc1OC (stereo in doubt)

>  <inhibition at 20 µM / %>
47

$$$$
>  <Molecule>
COc1cc2nc(C)nc(NC(C)c3ccc4nsnc4c3)c2cc1OC (stereo not drawn)

>  <inhibition at 20 µM / %>
29

$$$$
>  <Molecule>
COc1cc2nc(C)nc(NC(C)c3ccc(=O)[nH]c3)c2cc1OC (single isomer, unassigned; enantiomer 1)

>  <inhibition at 20 µM / %>
34

$$$$
>  <Molecule>
C/C=C/c1ccc([C@H](C)Nc2nc(C)nc3cc(OC)c(OC)cc23)s1 (racemic)

>  <inhibition at 20 µM / %>
49

$$$$
>  <Molecule>
COc1cc2nc(C)nc(N[C@@H](C)c3ccc(-c4ccc(N5CCOCC5)cc4)s3)c2cc1OC (stereo in doubt)

>  <inhibition at 20 µM / %>
16

$$$$
>  <Molecule>
COc1cc2nc(C)nc(NC(C)c3ccc(-c4cccc5cn[nH]c45)s3)c2cc1OC (stereo not drawn)

>  <inhibition at 20 µM / %>
44

$$$$
>  <Molecule>
COc1cc2nc(C)nc(NC(C)c3ccc(-c4ccccc4CNc4ccccc4)s3)c2cc1OC (stereo not drawn)

>  <inhibition at 20 µM / %>
30

$$$$
>  <Molecule>
COc1cc2nc(C)nc(N[C@H](C)c3cc4cccc(OC)c4o3)c2cc1OC (stereo in doubt)

>  <inhibition at 20 µM / %>
9

$$$$
>  <Molecule>
COc1cc2nc(C)nc(N[C@@H](C)c3ccc(-c4ccc5c(ccn5C)c4)s3)c2cc1OC (stereo in doubt)

>  <inhibition at 20 µM / %>
36

$$$$

----------
System name: human SOS1 (nucleotide exchange of K-Ras^G12C) (Homo sapiens, UniProt Q07889)
Protocol: Biochemical assay 2: K-Ras^G12C activation assay by hSOS1 at high GTP concentration (HTRF)
Particulars: high GTP; read-out: Assay 2 (KRAS-Activation by SOS high GTP) activity expressed as IC50

>  <Molecule>
COc1cc2nc(C)nc(NC(C)c3cccc(-c4nn[nH]n4)c3)c2cc1OC (stereo not drawn)

>  <Unit name>
µM

>  <IC50>
17

$$$$
>  <Molecule>
CCOc1ccccc1-c1ccc(C(C)Nc2nc(C)nc3cc(OC)c(OC)cc23)s1 (stereo not drawn)

>  <Unit name>
µM

>  <IC50>
9.29

$$$$
>  <Molecule>
COc1cc2nc(C)nc(NC(C)c3cc(-c4ccn(CCN5CCCC5)n4)cs3)c2cc1OC (stereo not drawn)

>  <Unit name>
µM

>  <IC50>
1.52

$$$$
>  <Molecule>
COc1cc2nc(C)nc(N[C@H](C)c3cccc(-c4cccc5cnccc45)c3)c2cc1OC

>  <Unit name>
µM

>  <IC50>
1.83

$$$$
>  <Molecule>
COc1cc2nc(C)nc(NC(C)c3ccc(-c4ccc(CN)s4)s3)c2cc1OC (stereo not drawn)

>  <Unit name>
µM

>  <IC50>
1.66

$$$$
>  <Molecule>
COc1cc2nc(C)nc(N[C@H](C)c3cccc(C4=CCN(C)CC4)c3)c2cc1OC

>  <Unit name>
µM

>  <IC50>
0.979

$$$$

----------
Parameter log10 IC50: see the listing below.
System name: human SOS1 (nucleotide exchange of K-Ras^G12C) (Homo sapiens, UniProt Q07889)
Protocol: Biochemical assay 2: K-Ras^G12C activation assay by hSOS1 at high GTP concentration (HTRF)
Particulars: high GTP; read-out: Assay 2 (KRAS-Activation by SOS high GTP) activity expressed as IC50
Quantity kind: log10 IC50 (log10 of the value in nM)

>  <Compound>
COc1cc2nc(C)nc(N[C@H](C)c3cccc(-c4cccc5[nH]ccc45)c3)c2cc1OC

>  <Reported result>
2.96

$$$$
>  <Compound>
COc1cc2nc(C)nc(NC(C)c3ccc(-c4ccccc4CNCC(=O)NCc4ccccc4)s3)c2cc1OC (centres unmarked)

>  <Reported result>
2.94

$$$$
>  <Compound>
Cc1nc(N[C@H](C)c2cccc(Cl)c2)c2cc(Br)ccc2n1

>  <Reported result>
4.05

$$$$
>  <Compound>
COc1cc2nc(C)nc(N[C@@H](C)c3ccc(-c4cccc(CNS(C)(=O)=O)c4)s3)c2cc1OC (racemic)

>  <Reported result>
3.79

$$$$
>  <Compound>
COc1cc2nc(C)nc(NC(C)c3csc(-c4ccccc4CN)c3)c2cc1OC (centres unmarked)

>  <Reported result>
2.64

$$$$
>  <Compound>
COc1cc2nc(C)nc(NC(C)c3ccc(-c4cccc(CCO)c4)s3)c2cc1OC (centres unmarked)

>  <Reported result>
3.81

$$$$
>  <Compound>
COc1cc2nc(C)nc(N[C@H](C)c3cccc(C4CC4)c3)c2cc1OC

>  <Reported result>
2.42

$$$$
>  <Compound>
COc1cc2nc(C)nc(NC(C)c3ccc(-c4ccccc4CN4CCCC4)s3)c2cc1OC (centres unmarked)

>  <Reported result>
2.03

$$$$
>  <Compound>
COc1cc2nc(C)nc(N[C@@H](C)c3ccc(-c4ccc(C)cc4C)s3)c2cc1OC (racemic)

>  <Reported result>
3.60

$$$$
>  <Compound>
C/C=C/c1cccc([C@@H](C)Nc2nc(C)nc3cc(OC)c(OC)cc23)c1

>  <Reported result>
3.06

$$$$
>  <Compound>
COc1cc2nc(C)nc(NC(C)c3cccc4c3cnn4C)c2cc1OC (centres unmarked)

>  <Reported result>
2.47

$$$$
>  <Compound>
COc1cc2nc(C)nc(NC(C)c3ccc(-c4ccccc4CNCC(=O)c4c[nH]c5ccccc45)s3)c2cc1OC (centres unmarked)

>  <Reported result>
2.37

$$$$
>  <Compound>
COc1cc2nc(C)nc(NC(C)c3cc(C)c(Br)s3)c2cc1OC (centres unmarked)

>  <Reported result>
3.62

$$$$
>  <Compound>
CCC/C=C/c1ccc([C@H](C)Nc2nc(C)nc3cc(OC)c(OC)cc23)s1 (racemic)

>  <Reported result>
3.76

$$$$
